Measured values drawn from patent US20260152557A1 for this set.

- measurement target: T1, human CD3 on CD3+ Jurkat cells (human, UniProt P07766 23-207)
- T1 construct: whole, on cells; The whole CD3 complex stands on the cells; also called Human CD3 Jurkat; human CD3+ Jurkat cells
- T1 sequence (P07766 23-207): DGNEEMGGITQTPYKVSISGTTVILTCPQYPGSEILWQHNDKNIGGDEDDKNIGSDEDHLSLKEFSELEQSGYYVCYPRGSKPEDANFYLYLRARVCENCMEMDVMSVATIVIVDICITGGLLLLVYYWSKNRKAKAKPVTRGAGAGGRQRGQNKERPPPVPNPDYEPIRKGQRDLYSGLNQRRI
- experiment: flow cytometry, yeast-produced IgG 100 nM on CD3+ Jurkat cells, pH 6.0
measured property: NCB

# binder, observed
records = [
    ("ADI-79842 (Antibody No. 7), human IgG1 (antibody, V domains shown, Tested as yeast-produced aglycosylated human IgG1) VH: QVQLVQSGAEVKKPGASVKVSCKASGFNIKDYYMHWVRQAPGQRLEWMGWIDLENANTIYDAKFQGRVTITRDTSASTAYMELSSLRSEDTAVYYCARDHYGRYFYDVWGQGTLVTVSS VL: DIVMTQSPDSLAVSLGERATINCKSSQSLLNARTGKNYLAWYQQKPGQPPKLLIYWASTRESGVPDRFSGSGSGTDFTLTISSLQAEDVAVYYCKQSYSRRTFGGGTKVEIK", 208),
    ("ADI-79847 (Antibody No. 13), human IgG1 (antibody, V domains shown, Tested as yeast-produced aglycosylated human IgG1) VH: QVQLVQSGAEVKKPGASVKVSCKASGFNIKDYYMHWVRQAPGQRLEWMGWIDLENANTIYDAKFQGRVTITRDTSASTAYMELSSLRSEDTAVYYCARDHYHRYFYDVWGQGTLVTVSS VL: DIVMTQSPDSLAVSLGERATINCKSSQSLLNARTGHNYLAWYQQKPGQPPKLLIYWASTRESGVPDRFSGSGSGTDFTLTISSLQAEDVAVYYCKQSHSRRTFGGGTKVEIK", 0),
    ("ADI-79845 (Antibody No. 11), human IgG1 (antibody, V domains shown, Tested as yeast-produced aglycosylated human IgG1) VH: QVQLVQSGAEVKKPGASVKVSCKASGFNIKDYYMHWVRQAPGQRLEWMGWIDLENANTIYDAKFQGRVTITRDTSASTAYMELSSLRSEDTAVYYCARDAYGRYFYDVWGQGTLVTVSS VL: DIVMTQSPDSLAVSLGERATINCKSSQSLLNARTGKNYLAWYQQKPGQPPKLLIYWASTRESGVPDRFSGSGSGTDFTLTISSLQAEDVAVYYCKQSYSHRTFGGGTKVEIK", 200),
    ("ADI-74968 (Antibody No. 6), human IgG1 (antibody, V domains shown, Tested as human IgG1 (yeast-produced aglycosylated, or CHO-produced)) VH: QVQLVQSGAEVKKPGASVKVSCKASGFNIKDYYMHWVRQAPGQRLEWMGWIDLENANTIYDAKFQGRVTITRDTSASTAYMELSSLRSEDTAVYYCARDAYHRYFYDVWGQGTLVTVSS VL: DIVMTQSPDSLAVSLGERATINCKSSQSLLNARTGHNYLAWYQQKPGQPPKLLIYWASTRESGVPDRFSGSGSGTDFTLTISSLQAEDVAVYYCKQSYSHRTFGGGTKVEIK", 197),
    ("ADI-74966 (Antibody No. 4), human IgG1 (antibody, V domains shown, Tested as human IgG1 (yeast-produced aglycosylated, or CHO-produced)) VH: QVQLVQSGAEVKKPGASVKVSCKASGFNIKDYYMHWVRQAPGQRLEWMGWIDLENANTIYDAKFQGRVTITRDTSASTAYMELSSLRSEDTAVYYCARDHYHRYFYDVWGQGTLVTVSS VL: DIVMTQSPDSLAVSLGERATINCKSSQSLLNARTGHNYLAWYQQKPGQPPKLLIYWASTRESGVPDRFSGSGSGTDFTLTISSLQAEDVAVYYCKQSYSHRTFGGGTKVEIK", 131),
    ("ADI-79848 (Antibody No. 9), human IgG1 (antibody, V domains shown, Tested as yeast-produced aglycosylated human IgG1) VH: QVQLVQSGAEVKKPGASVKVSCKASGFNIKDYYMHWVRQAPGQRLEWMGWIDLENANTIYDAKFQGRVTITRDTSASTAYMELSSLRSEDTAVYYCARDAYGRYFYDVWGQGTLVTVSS VL: DIVMTQSPDSLAVSLGERATINCKSSQSLLNARTGHNYLAWYQQKPGQPPKLLIYWASTRESGVPDRFSGSGSGTDFTLTISSLQAEDVAVYYCKQSYSRRTFGGGTKVEIK", 200),
    ("ADI-79846 (Antibody No. 12), human IgG1 (antibody, V domains shown, Tested as yeast-produced aglycosylated human IgG1) VH: QVQLVQSGAEVKKPGASVKVSCKASGFNIKDYYMHWVRQAPGQRLEWMGWIDLENANTIYDAKFQGRVTITRDTSASTAYMGLSSLRSEDTAVYYCARDHYGRYFYDVWGQGTLVTVSS VL: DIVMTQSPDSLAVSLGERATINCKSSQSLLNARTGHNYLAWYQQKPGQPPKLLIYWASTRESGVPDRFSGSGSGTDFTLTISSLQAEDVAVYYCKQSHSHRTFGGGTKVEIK", 65),
]
